Target: human mAChR M4 (Homo sapiens)
Sequence (P08173 1-479): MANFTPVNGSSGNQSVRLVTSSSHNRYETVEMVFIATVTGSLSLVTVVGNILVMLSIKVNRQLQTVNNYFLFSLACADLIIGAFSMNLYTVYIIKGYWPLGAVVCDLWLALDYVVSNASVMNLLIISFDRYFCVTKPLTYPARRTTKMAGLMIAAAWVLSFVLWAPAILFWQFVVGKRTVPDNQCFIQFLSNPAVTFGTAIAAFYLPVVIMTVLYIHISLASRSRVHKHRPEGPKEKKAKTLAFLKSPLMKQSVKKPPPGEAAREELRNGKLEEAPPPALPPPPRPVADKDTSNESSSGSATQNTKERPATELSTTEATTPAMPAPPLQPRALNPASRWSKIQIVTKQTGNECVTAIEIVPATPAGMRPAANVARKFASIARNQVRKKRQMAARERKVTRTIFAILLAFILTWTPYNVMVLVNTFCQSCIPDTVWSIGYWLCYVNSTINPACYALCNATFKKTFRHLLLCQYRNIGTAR
Test: mAChR M4 cell-based functional assay: calcium mobilization (Fluo-4, FDSS), potentiation of EC20 acetylcholine response in hM4-Gqi5 CHO-K1 cells
Conditions: potentiation of EC20 acetylcholine response, calcium mobilization, human M4
QUANTITY KIND: pEC50
Remember, pEC50 is on a log scale: it is -log10 of the molar concentration.

COMPOUND	pEC50
COc1ccncc1-c1cnc2c(c1)CN(c1nn3c(=O)ccnc3c(C)c1C)CC2 [Compound 1-140]	6.44
Cc1c(N2CCc3ncc(N4CC(C)(C)OC4=O)cc3C2)nn2c(=O)ccnc2c1C [Compound 2-150]	5.36

### Prompt Field request: pEC50 | item: Cc1cc(=O)n2nc(N3CCc4ncc(-c5ccc(C)c(F)c5)cc4C3)c(C)cc2n1 [Compound 1-206]
### Response 6.39

### Prompt Also, COc1ccc(-c2cnc3c(c2)CN(c2nn4c(=O)ccnc4cc2C)CC3)c(C)n1 [Compound 1-426] please.
### Response 6.46

### Prompt Also, Cc1c(N2CCc3ncc(N4C[C@@H](C)O[C@@H](C)C4)cc3C2)nn2c(=O)cc(C(F)F)nc2c1C [Compound 2-41] please.
### Response 6.09

### Prompt Also, Cc1cc2nc(C)c(F)c(=O)n2nc1N1CCc2ncc(Nc3ccncc3F)cc2C1 [Compound 2-156] please.
### Response 7.19

### Prompt Also, Cc1cc(=O)n2nc(N3CCc4ncc(Nc5ccnn5C)cc4C3)c(C)cc2n1 [Compound 2-20] please.
### Response 6.78

### Prompt Also, COCc1cc(=O)n2nc(N3CCc4ncc(-c5cnc(Cl)cc5C)cc4C3)c(C)cc2n1 [Compound 1-357] please.
### Response 6.42

### Prompt Also, Cc1c(N2CCc3ncc(-c4cccc(F)c4)cc3C2)nn2c(=O)cc(C(F)F)nc2c1C [Compound 1-306] please.
### Response 6.35

### Prompt Also, Cc1ccccc1-c1cnc2c(c1)CN(c1nn3c(=O)ccnc3cc1C)CC2 [Compound 1-431] please.
### Response 6.89

----------
Target: human mAChR M4 (Homo sapiens, UniProt P08173)
Assay: mAChR M4 cell-based functional assay: calcium mobilization (Fluo-4, FDSS), potentiation of EC20 acetylcholine response in hM4-Gqi5 CHO-K1 cells
Conditions: potentiation of EC20 acetylcholine response, calcium mobilization, human M4
Label key: Met means EC50 under 400 nM; Not met means EC50 of 400 nM or more.

Example entries begin here.
COMPOUND	CATEGORY
Cc1cc2nccc(=O)n2nc1N1CCc2ncc(NCC3CCCOC3)cc2C1 (centres unmarked)	Not met
CCN(CC)c1cnc2c(c1)CN(c1nn3c(=O)ccnc3cc1C)CC2	Not met
Cc1ccc(-c2cnc3c(c2)CN(c2nn4c(=O)cc(C(F)(F)F)nc4cc2C)CC3)cn1	Met
COc1cc(-c2cnc3c(c2)CN(c2nn4c(=O)ccnc4cc2C)CC3)ccn1	Met
Cc1cc2n(n1)CCCN2c1cnc2c(c1)CN(c1nn3c(=O)ccnc3c(C)c1C)CC2	Met

### Prompt Would you kindly verify if EC50 of Cc1cc(F)ccc1Nc1cnc2c(c1)CN(c1nn3c(=O)ccnc3cc1C)CC2 is strictly less than 400 nM?
### Response Met

### Prompt Also, Cc1c(N2CCc3ncc(-c4cncc(C#N)c4)cc3C2)nn2c(=O)cc(C(F)F)nc2c1C please.
### Response Not met

### Prompt Also, Cc1cc(=O)n2nc(N3CCc4ncc(-c5cc(F)nc(F)c5)cc4C3)c(C)c(C)c2n1 please.
### Response Not met

### Prompt Also, Cc1c(N2CCc3ncc(N4CCOC(C)(C)C4)cc3C2)nn2c(=O)cc(C(F)F)nc2c1C please.
### Response Met

### Prompt Also, Cc1cc(=O)n2nc(N3CCc4ncc(N5CCO[C@H](C)C5)cc4C3)c(C)cc2n1 please.
### Response Met
